Values compiled from the supplement of paper PMC7877785.

# Test Description: self-splicing fitness, log relative to wild type (ln ratio); higher = more splicing; Tetrahymena group I intron in knt gene, E. coli kanamycin selection, DiMSum; sequences stand for … in CUCUCU…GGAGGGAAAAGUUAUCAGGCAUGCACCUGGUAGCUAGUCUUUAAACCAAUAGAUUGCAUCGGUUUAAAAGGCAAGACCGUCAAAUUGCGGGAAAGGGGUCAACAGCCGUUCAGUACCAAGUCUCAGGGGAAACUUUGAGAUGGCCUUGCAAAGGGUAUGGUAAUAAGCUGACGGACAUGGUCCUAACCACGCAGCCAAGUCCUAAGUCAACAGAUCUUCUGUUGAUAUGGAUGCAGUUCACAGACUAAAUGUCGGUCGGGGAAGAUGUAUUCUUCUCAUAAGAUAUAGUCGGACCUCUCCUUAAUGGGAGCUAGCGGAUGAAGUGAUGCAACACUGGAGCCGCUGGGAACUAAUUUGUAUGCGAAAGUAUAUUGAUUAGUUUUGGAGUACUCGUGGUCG;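 also: selection with 25 µg/mL kanamycin versus none on LB agar overnight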
# Measurement Parameters: 37 °C
Class Fulfilled: self-splicing fitness (ln) at least -2. Class Not fulfilled: self-splicing fitness (ln) below -2.

Some solved entries appear below for comparison.
| Seq Text | Label Value |
| --- | --- |
| AGAAAGCAAUAUUACGGUUA | Fulfilled |
| AAAUAGCAAUAUUACGGAAC | Fulfilled |
| ACGGAGCAAUAUUACGCAUG | Not fulfilled |
| AUGAAGCAAUAUUACGAUUC | Fulfilled |

// next entry
Q: Could you verify whether the entry CACUAGCAAUAUUACGACUG shows self-splicing fitness (ln) of no less than -2?
Ans: Fulfilled

----------
In this section we review reported self-splicing fitness (ln) values for a set of sequences.
# Test Description: self-splicing fitness, log relative to wild type (ln ratio); higher = more splicing; Tetrahymena group I intron in knt gene, E. coli kanamycin selection, DiMSum; sequences stand for … in CUCUCU…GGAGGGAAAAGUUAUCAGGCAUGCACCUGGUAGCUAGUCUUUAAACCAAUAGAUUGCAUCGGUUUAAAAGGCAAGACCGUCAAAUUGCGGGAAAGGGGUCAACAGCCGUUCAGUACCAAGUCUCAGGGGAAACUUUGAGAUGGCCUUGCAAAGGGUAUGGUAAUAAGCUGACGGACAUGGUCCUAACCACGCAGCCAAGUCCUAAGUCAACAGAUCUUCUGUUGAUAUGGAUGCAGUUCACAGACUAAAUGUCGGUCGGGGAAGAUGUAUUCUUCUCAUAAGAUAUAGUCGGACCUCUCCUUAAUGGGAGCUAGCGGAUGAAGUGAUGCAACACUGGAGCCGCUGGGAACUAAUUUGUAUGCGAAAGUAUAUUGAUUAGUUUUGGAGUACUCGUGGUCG
# Measurement Parameters: 30 °C
Keep the answer to the number alone.

Check out these entries, answers already filled in.
| Seq Text | self-splicing fitness (ln) |
| --- | --- |
| AGACAGCAAUAUUACGAUGC | -3.36 |
| UUUAAGCAAUAUUACGAUGG | -1.05 |
| UAAAAGCAAUAUUACGUGAU | -2.46 |
| GCUGAGCAAUAUUACGUCAA | -3.38 |
| GUACAGCAAUAUUACGCUUU | -2.99 |

Q: Entry GACCAGCAAUAUUACGGAAU has what self-splicing fitness (ln)?
Ans: -0.34

Q: Entry CGCGAGCAAUAUUACGUUAA has what self-splicing fitness (ln)?
Ans: -3.18

Q: Entry GCGUAGCAAUAUUACGGUUA has what self-splicing fitness (ln)?
Ans: -0.359

----------
In this section we review reported self-splicing fitness (ln) values for a set of sequences.
# Test Description: self-splicing fitness, log relative to wild type (ln ratio); higher = more splicing; Tetrahymena group I intron in knt gene, E. coli kanamycin selection, DiMSum; sequences stand for … in CUCUCU…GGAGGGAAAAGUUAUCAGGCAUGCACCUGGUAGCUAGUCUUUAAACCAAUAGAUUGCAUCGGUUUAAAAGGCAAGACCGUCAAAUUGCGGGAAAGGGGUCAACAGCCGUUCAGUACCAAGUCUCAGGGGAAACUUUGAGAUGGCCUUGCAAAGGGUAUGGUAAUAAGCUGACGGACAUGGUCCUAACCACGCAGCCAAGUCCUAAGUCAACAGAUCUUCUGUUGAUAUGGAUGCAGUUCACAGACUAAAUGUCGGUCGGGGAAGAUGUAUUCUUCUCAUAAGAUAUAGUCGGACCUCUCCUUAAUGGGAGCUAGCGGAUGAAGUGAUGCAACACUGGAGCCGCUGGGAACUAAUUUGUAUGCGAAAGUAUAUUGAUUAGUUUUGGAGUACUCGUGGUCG
# Measurement Parameters: 37 °C
Keep the answer to the number alone.

Check out these entries, answers already filled in.
| Seq Text | Numeric Value |
| --- | --- |
| ACGCAGCAAUAUUACGUCAC | -2.54 |
| CCUCAGCAAUAUUACGGGAU | -2.55 |

# evaluate next
Q: Entry GAAAAGCAAUAUUACGAAUA has what self-splicing fitness (ln)?
Ans: -1.19

----------
# Test Description: self-splicing fitness, log relative to wild type (ln ratio); higher = more splicing; Tetrahymena group I intron in knt gene, E. coli kanamycin selection, DiMSum; sequences stand for … in CUCUCU…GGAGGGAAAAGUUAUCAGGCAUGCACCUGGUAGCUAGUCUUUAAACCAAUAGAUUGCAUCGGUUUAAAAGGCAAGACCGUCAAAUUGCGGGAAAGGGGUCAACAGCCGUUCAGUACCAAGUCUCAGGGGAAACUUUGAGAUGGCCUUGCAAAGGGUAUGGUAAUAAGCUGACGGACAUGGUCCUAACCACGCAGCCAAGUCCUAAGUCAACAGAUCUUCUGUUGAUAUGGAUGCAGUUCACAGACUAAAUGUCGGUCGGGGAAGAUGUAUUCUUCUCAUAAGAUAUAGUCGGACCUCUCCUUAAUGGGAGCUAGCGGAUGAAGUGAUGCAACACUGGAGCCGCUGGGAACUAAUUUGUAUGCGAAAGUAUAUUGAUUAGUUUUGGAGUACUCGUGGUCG
# Measurement Parameters: 37 °C
Quantity Name: self-splicing fitness (ln)

Q: Entry GAGCAGCAAUAUUACGGGGU has what self-splicing fitness (ln)?
Ans: -3.18

Q: Entry UGCCAGCAAUAUUACGAUCC has what self-splicing fitness (ln)?
Ans: -1.11

Q: Entry CCAAAGCAAUAUUACGAGCG has what self-splicing fitness (ln)?
Ans: -0.161

Q: Entry GCGAAGCAAUAUUACGAUAC has what self-splicing fitness (ln)?
Ans: -0.487

Q: Entry UAGUAGCAAUAUUACGCAUA has what self-splicing fitness (ln)?
Ans: -1.69

Q: Entry GCAGAGCAAUAUUACGCCUA has what self-splicing fitness (ln)?
Ans: -2.09

Q: Entry GUUUAGCAAUAUUACGUAGC has what self-splicing fitness (ln)?
Ans: -0.831

Q: Entry AUCAAGCAAUAUUACGUGAC has what self-splicing fitness (ln)?
Ans: -1.07

Q: Entry UUAUAGCAAUAUUACGCUUA has what self-splicing fitness (ln)?
Ans: -1.09

Q: Entry GUUGAGCAAUAUUACGGCCC has what self-splicing fitness (ln)?
Ans: -0.757

----------
# Test Description: self-splicing fitness, log relative to wild type (ln ratio); higher = more splicing; Tetrahymena group I intron in knt gene, E. coli kanamycin selection, DiMSum; sequences stand for … in CUCUCU…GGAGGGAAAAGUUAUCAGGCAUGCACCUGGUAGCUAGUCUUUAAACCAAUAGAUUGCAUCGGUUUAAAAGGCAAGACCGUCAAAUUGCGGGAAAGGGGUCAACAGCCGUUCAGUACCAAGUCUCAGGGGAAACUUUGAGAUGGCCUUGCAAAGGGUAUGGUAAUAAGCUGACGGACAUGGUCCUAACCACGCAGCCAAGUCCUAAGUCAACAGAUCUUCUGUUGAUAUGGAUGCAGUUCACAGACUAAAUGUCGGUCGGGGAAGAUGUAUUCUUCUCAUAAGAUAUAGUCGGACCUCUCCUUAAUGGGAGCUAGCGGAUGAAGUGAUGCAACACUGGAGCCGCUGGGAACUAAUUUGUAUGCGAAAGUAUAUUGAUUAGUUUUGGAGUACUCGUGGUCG
# Measurement Parameters: 30 °C
In this section we review reported self-splicing fitness (ln) values for a set of sequences.
Keep the answer to the number alone.

Check out these entries, answers already filled in.
| Seq Text | Numeric Value |
| --- | --- |
| AAGUAGCAAUAUUACGCUCU | -1.25 |
| AGGCAGCAAUAUUACGAAGG | -1.9 |
| ACCCAGCAAUAUUACGCUCU | -0.186 |
| CAUCAGCAAUAUUACGAAUU | -1.2 |
| UGGGAGCAAUAUUACGAUUA | -2.17 |

Q: Entry UACGAGCAAUAUUACGGUCC has what self-splicing fitness (ln)?
Ans: -3.61

Q: Entry UCCAAGCAAUAUUACGCUUU has what self-splicing fitness (ln)?
Ans: -3.8

Q: Entry ACUCAGCAAUAUUACGUACA has what self-splicing fitness (ln)?
Ans: -1.74

Q: Entry CAAGAGCAAUAUUACGUUGU has what self-splicing fitness (ln)?
Ans: -5.35

Q: Entry CAGCAGCAAUAUUACGCCUA has what self-splicing fitness (ln)?
Ans: -0.345

Q: Entry GUUAAGCAAUAUUACGUGCA has what self-splicing fitness (ln)?
Ans: -1.44
